Recorded IC50 for the following compounds
- Experimental System: human thrombin (Homo sapiens, UniProt P00734)
- Protocol Text: Determination of related protease inhibition: thrombin
- Assay type: biochemical
- Condition Context: fluorogenic substrate at Km concentration, 25 °C; read-out: IC50 (human thrombin)
- Protocol: In vitro inhibition of related proteases was determined using an IC50 assay based on standard literature methods (see e.g. Shori et al., Biochem. Pharmacol., 1992,43, 1209; Bouckaert et al., European Journal of Medicinal Chemistry 110 (2016) 181). […] Protease activity was measured by monitoring the accumulation of liberated fluorescence from the substrate over 5 min at 25 °C. The linear rate of fluorescence increase per minute was expressed as percentage (%) activity. […]
Value Type: IC50

INSERT INTO assay_data (compound_structure, value_type, meas_value) VALUES
  ('Cc1cc(OCC23CN(C(=O)C4CC5(CCOCC5)C4)C(CNc4cccc5c(N)nccc45)(C2)C3)cc(=O)n1C', 'IC50', '> 40 µM'),
  ('Cn1ccc(OCC23CN(C(=O)CC4CCCCC4)C(CNc4cccc5c(N)nccc45)(C2)C3)cc1=O', 'IC50', '10 to 40 µM');

----------
Recorded IC50 for the following molecules
- Experimental System: Human Factor XIIa (Homo sapiens)
- Construct: purchased Enzyme Research Laboratories
- Sequence (P00748 373-615 limits assumed): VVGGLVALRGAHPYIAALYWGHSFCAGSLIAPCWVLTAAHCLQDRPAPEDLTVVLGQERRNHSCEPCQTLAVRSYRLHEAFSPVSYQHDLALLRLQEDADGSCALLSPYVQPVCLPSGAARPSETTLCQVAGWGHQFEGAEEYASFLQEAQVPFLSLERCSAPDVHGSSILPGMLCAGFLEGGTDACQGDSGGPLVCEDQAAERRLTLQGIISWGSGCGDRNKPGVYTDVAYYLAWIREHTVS
- Sequence (P00748 20-372 partner limits assumed): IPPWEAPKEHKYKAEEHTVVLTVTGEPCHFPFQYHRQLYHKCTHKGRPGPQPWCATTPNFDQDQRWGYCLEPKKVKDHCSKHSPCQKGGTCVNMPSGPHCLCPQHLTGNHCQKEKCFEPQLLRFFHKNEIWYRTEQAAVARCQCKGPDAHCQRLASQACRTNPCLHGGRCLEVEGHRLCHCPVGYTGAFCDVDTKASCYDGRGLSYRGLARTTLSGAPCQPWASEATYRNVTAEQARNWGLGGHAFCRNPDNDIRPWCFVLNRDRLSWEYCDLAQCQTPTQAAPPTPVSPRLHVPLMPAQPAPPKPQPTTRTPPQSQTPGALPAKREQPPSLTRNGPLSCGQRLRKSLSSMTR
- Protocol Text: Determination of FXIIa inhibition (in vitro IC50 assay, fluorogenic substrate H-DPro-Phe-Arg-AFC)
- Format: biochemical
- Condition Context: human Factor XIIa; fluorogenic substrate H-DPro-Phe-Arg-AFC at Km concentration; 5 min, 25 °C; class symbols; read-out: Human FXIIa IC50
Value Type: IC50

INSERT INTO measurements (compound_structure, experimental_system, value_type, meas_value) VALUES
  ('Cc1cc(OCC23CN(C(=O)N4CC[C@H](c5ccccc5)C4)C(CNc4cccc5c(N)nccc45)(C2)C3)cc(=O)n1C', 'Human Factor XIIa (Homo sapiens)', 'IC50', '10 to 100 nM'),
  ('Cn1ccc(OCC23CN(C(=O)C4(Oc5ccccc5)CC4)C(CNc4cccc5c(N)nccc45)(C2)C3)cc1=O', 'Human Factor XIIa (Homo sapiens)', 'IC50', '100 to 300 nM'),
  ('Cn1ccc(OCC23CN(C(=O)CC4CCCCC4)C(CNc4cccc5c(N)nccc45)(C2)C3)cc1=O', 'Human Factor XIIa (Homo sapiens)', 'IC50', '10 to 100 nM'),
  ('Cn1ccc(OCC23CN(C(=O)CCc4ccc5c(c4)CCO5)C(CNc4cccc5c(N)nccc45)(C2)C3)cc1=O', 'Human Factor XIIa (Homo sapiens)', 'IC50', '10 to 100 nM'),
  ('Cn1ccc(OCC23CN(C(=O)N4CC[C@@H](c5ccccc5)C4)C(CNc4cccc5c(N)nccc45)(C2)C3)cc1=O', 'Human Factor XIIa (Homo sapiens)', 'IC50', '1 to 10 nM'),
  ('CN(CC1CC1)C(=O)N1CC2(COc3ccn(C)c(=O)c3)CC1(CNc1cccc3c(N)nccc13)C2', 'Human Factor XIIa (Homo sapiens)', 'IC50', '10 to 100 nM'),
  ('Cc1cc(OCC23CN(C(=O)Nc4ccc5c(c4)CCC5)C(CNc4cccc5c(N)nccc45)(C2)C3)cc(=O)n1C', 'Human Factor XIIa (Homo sapiens)', 'IC50', '1 to 10 nM');

This collection of values is drawn from patent US20260347347A1.
